METRIC NAME: melting point

Q. For the compound "CC(=O)N[C@H]1CC[C@H](Nc2nc(NCc3cccc(-c4ccsc4)c3)c3ncn(C(C)C)c3n2)CC1" , what melting point is on record?
A. 209 to 211 °C

Q. Next up: "CC(=O)N[C@H]1CC[C@H](Nc2nc(NCc3ccc(-c4ccco4)nc3)c3ncn(C(C)C)c3n2)CC1"
A. 216 to 218 °C

Q. Next up: "CC(C)n1cnc2c(NCc3cccc(-c4ccsc4)c3)nc(N[C@H]3CC[C@H](N)CC3)nc21"
A. 211 to 216 °C

Q. Next up: "CC(=O)N[C@H]1CC[C@H](Nc2nc(NCc3ccc(-c4cccc(F)c4)nc3)c3ncn(C(C)C)c3n2)CC1"
A. 199 to 230 °C

Ref: patent US6812232B2
